target: FGFR3 (UniProt P22607); assay: phosphorylation enrichment, bacterial display (enrichment ratio); higher = better substrate or ligand; peptides without Tyr show the background;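 note: 11-residue human phosphosite peptides and single-mutation variants displayed on the E. coli surface, counted by deep sequencing, each peptide's frequency after selection divided by its frequency in the unselected input library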;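 note: frequency after pTyr selection over input frequency; kinase dosed for 20-30% of maximal phosphorylation in three min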
Sequence (P22607 whole entry, looked up): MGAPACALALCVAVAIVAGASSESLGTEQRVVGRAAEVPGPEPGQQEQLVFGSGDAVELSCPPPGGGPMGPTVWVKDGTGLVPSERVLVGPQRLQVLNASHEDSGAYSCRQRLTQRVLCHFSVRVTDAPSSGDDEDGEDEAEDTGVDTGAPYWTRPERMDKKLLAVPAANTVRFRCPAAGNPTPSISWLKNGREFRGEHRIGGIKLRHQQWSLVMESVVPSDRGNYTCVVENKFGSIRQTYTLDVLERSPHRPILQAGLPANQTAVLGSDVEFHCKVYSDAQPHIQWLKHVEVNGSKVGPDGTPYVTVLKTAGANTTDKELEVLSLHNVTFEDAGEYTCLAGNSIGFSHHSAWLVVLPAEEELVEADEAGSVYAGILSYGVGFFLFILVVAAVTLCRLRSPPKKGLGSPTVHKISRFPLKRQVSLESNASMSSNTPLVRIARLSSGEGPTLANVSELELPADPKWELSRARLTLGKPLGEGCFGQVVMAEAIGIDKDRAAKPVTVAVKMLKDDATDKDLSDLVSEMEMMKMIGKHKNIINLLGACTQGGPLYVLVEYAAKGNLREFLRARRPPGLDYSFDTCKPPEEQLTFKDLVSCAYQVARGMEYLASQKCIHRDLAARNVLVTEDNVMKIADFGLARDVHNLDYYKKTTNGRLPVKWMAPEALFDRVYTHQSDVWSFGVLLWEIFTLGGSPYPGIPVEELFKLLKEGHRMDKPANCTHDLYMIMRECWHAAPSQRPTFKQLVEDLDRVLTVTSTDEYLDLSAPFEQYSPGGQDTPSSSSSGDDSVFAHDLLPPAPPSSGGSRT
Each entry gets N if its phosphorylation enrichment stays under 0.7, and Y if its phosphorylation enrichment is 0.7 or above.

Please indicate if the recorded phosphorylation enrichment for QDLRLYRPHLA [BTK_Y617_G613D] meets or exceeds 0.7. N

Please indicate if the recorded phosphorylation enrichment for SAPDSYIGIGN [SLC38A4_Y27] meets or exceeds 0.7. N

Please indicate if the recorded phosphorylation enrichment for QNTGDYYDLYG [PTPN11_Y62] meets or exceeds 0.7. Y

Please indicate if the recorded phosphorylation enrichment for EGTATYAAAIL [JUP_Y644_V648I] meets or exceeds 0.7. N

Please indicate if the recorded phosphorylation enrichment for MPLTKYLKRIK [CNGB3_Y200_E199K] meets or exceeds 0.7. N

Please indicate if the recorded phosphorylation enrichment for CLAQRYLIWEC [SCN5A_Y694_R689C] meets or exceeds 0.7. Y

Please indicate if the recorded phosphorylation enrichment for PTKNDYWAMPA [WWOX_Y287_L291P] meets or exceeds 0.7. Y

Please indicate if the recorded phosphorylation enrichment for QEALEYFMKQV [PIK3CA_Y1038_M1043V] meets or exceeds 0.7. N

Please indicate if the recorded phosphorylation enrichment for KFLENYLNRLL [PLD2_Y169_YF] meets or exceeds 0.7. N

Please indicate if the recorded phosphorylation enrichment for SEPDLYFDPRG [PKP1_Y160_C161Y_YF] meets or exceeds 0.7. Y

Please indicate if the recorded phosphorylation enrichment for DSMQSYDLDFP [UNC13B_Y243_YF] meets or exceeds 0.7. N

Please indicate if the recorded phosphorylation enrichment for MDFRSYPREFG [RBM10_Y44_YF] meets or exceeds 0.7. N

Please indicate if the recorded phosphorylation enrichment for ALDHKYHGGGG [HBB_Y146_A143D] meets or exceeds 0.7. N

Please indicate if the recorded phosphorylation enrichment for GETEQYVGGGG [FAT4_Y4980_A4977T] meets or exceeds 0.7. N

Please indicate if the recorded phosphorylation enrichment for KIRDWYQRQRP [KRT14_Y151] meets or exceeds 0.7. N

Please indicate if the recorded phosphorylation enrichment for LKVQVYILGRE [ASS1_Y359_G356V] meets or exceeds 0.7. Y

Please indicate if the recorded phosphorylation enrichment for SVTCTYTPALN [TP53_Y126_S127T] meets or exceeds 0.7. Y

Please indicate if the recorded phosphorylation enrichment for DVLVEYQEEGR [GNS_Y416_G418E] meets or exceeds 0.7. Y

Please indicate if the recorded phosphorylation enrichment for PSDLLYILDIQ [ITGA2B_Y845] meets or exceeds 0.7. Y

Please indicate if the recorded phosphorylation enrichment for EVDELYREAPI [MYL12B_Y143] meets or exceeds 0.7. Y

Please indicate if the recorded phosphorylation enrichment for NGQAVYAACQT [XDH_Y1092] meets or exceeds 0.7. N

Please indicate if the recorded phosphorylation enrichment for RPCVVYGGADI [DDX3X_Y301] meets or exceeds 0.7. Y

Please indicate if the recorded phosphorylation enrichment for QPGDIYHQTWA [GBA_Y244] meets or exceeds 0.7. Y

Please indicate if the recorded phosphorylation enrichment for RLPNGYGLAYR [DLK1_Y262_S260N] meets or exceeds 0.7. N

Please indicate if the recorded phosphorylation enrichment for RDMMDYMLQGV [CYP21A2_Y259] meets or exceeds 0.7. Y

Please indicate if the recorded phosphorylation enrichment for SAPPSHEETVA [LITAF_Y23_Y23H] meets or exceeds 0.7. Y

Please indicate if the recorded phosphorylation enrichment for SEKIVYGHLDD [ACO2_Y71] meets or exceeds 0.7. N

Please indicate if the recorded phosphorylation enrichment for GIVEDYRPTFY [ACVRL1_Y421_P424T] meets or exceeds 0.7. N

Please indicate if the recorded phosphorylation enrichment for FAELMYTGFWH [ASS1_Y322_V321M] meets or exceeds 0.7. Y

Please indicate if the recorded phosphorylation enrichment for IALSKYGRVKR [FGF6_Y186] meets or exceeds 0.7. N

Please indicate if the recorded phosphorylation enrichment for TVQVAYYTMMM [SPATA17_Y83] meets or exceeds 0.7. Y

Please indicate if the recorded phosphorylation enrichment for SRFQFYFQQKG [CHKB_Y381] meets or exceeds 0.7. Y

Please indicate if the recorded phosphorylation enrichment for QKFMAYLSQGW [HLCS_Y236_G241W] meets or exceeds 0.7. Y

Please indicate if the recorded phosphorylation enrichment for VRFMANTDETF [F8_Y450_Y450N] meets or exceeds 0.7. N

Please indicate if the recorded phosphorylation enrichment for REAMEYLESKQ [BTK_Y511_C506R] meets or exceeds 0.7. Y

Please indicate if the recorded phosphorylation enrichment for SVVVPYEPPDV [TP53_Y220_E224D] meets or exceeds 0.7. N

Please indicate if the recorded phosphorylation enrichment for EILDVYIFLGP [GAA_Y340_G335E] meets or exceeds 0.7. Y

Please indicate if the recorded phosphorylation enrichment for `SKDSAYVTWEP` meets or exceeds 0.7. Y

Please indicate if the recorded phosphorylation enrichment for HRLSTYTKMLF [CHST8_Y251] meets or exceeds 0.7. Y

Please indicate if the recorded phosphorylation enrichment for RKVAQYMLENE [SLC16A6_Y224_E221V] meets or exceeds 0.7. Y

Please indicate if the recorded phosphorylation enrichment for AGQEDDDRLRP [RAC1_Y64_Y64D] meets or exceeds 0.7. N

Please indicate if the recorded phosphorylation enrichment for KANEFYPVVII [ADAMTS18_Y765_L769I_YF] meets or exceeds 0.7. Y

Please indicate if the recorded phosphorylation enrichment for ATRDVYNPFET [SCAMP3_Y41_L38R] meets or exceeds 0.7. N

Please indicate if the recorded phosphorylation enrichment for FLRKEYGGVNV [CBR3_Y81_L84V] meets or exceeds 0.7. N

Please indicate if the recorded phosphorylation enrichment for FADGVYQALEE [DUOX2_Y70_YF] meets or exceeds 0.7. N

Please indicate if the recorded phosphorylation enrichment for DFCDLYGGEKF [PTPN11_Y66_Y63C_YF] meets or exceeds 0.7. Y

Please indicate if the recorded phosphorylation enrichment for TSKLSYLDPRI [TOP1_Y723_N722S] meets or exceeds 0.7. N

Please indicate if the recorded phosphorylation enrichment for NTGDYCDLYGG [PTPN11_Y63_Y63C] meets or exceeds 0.7. Y

Please indicate if the recorded phosphorylation enrichment for LYYYSYLLKNH [PTEN_Y180_V175L] meets or exceeds 0.7. Y

Please indicate if the recorded phosphorylation enrichment for KEDPEYKKKFR [FAM161A_Y278_E273K] meets or exceeds 0.7. N

Please indicate if the recorded phosphorylation enrichment for KKHIPCREHKS [CSNK1G2_Y206_Y206C] meets or exceeds 0.7. Y
